Run description: PAMPA membrane permeability assay
Assay type: physicochemical
Measurement parameters: pH 7.4 buffer, GIT lipid, 4 hours incubation
Value type: PAMPA (10^−6 cm/s)

Example entries and their recorded answers appear below.
[
  {
    "Compound": "CCN(CC)C(=O)C[N+]1(CC(=O)Nc2c(C)cccc2C(=O)OC)CCCC(c2ccccc2)C1 (mixture of isomers)",
    "PAMPA (10^−6 cm/s)": "+ (<0.1 10^−6 cm/s)"
  },
  {
    "Compound": "CC[N+]1(CC(=O)Nc2c(C)cccc2C(=O)OC)CCCC(C(=O)OC2CCCC2)C1.[I-] (stereo not drawn)",
    "PAMPA (10^−6 cm/s)": "+ (<0.1 10^−6 cm/s)"
  },
  {
    "Compound": "CCCOC(=O)C1CCC[N+](CC)(CC(=O)Nc2c(C)cccc2C(=O)OC)C1.[I-] (stereo not drawn)",
    "PAMPA (10^−6 cm/s)": "+ (<0.1 10^−6 cm/s)"
  },
  {
    "Compound": "CCNC(=O)C1CCC[N+](CC)(CC(=O)Nc2c(C)cccc2C(=O)OC)C1.O=C[O-] (stereo not drawn)",
    "PAMPA (10^−6 cm/s)": "+ (<0.1 10^−6 cm/s)"
  }
]

**Q:** Find the measured PAMPA (10^−6 cm/s) of COC(=O)c1cccc(C)c1NC(=O)C[N+]1(Cc2ccccc2)CCCC(C(=O)OCC(C)C)C1 (mixture of isomers) and report it.
**A:** + (<0.1 10^−6 cm/s)

**Q:** Item COC(=O)c1cccc(C)c1NC(=O)C[N+]1(Cc2ccccc2)CCCCCC1 : provide PAMPA (10^−6 cm/s)
**A:** + (<0.1 10^−6 cm/s)

###

Tested system: NaV1.7 (Homo sapiens)
Construct: expressed in transfected cells; host or cells: HEK293, tetracycline-inducible
Run description: Automated patch clamp (Qube 384), internal block of NaV1.7 in HEK293 cells
Assay type: cell-based
Measurement parameters: compound in internal solution, read-out: NaV1.7 Intracellular Inhibition
Description: NaV1.7 was expressed in HEK293 cells upon induction with tetracycline. […] Before experiments, cells were washed with DPBS (VWR, Radnor, Pa.), digested with Detachin (VWR Radnor, Pa.) and then triturated 10 times in CHO Serum-Free Media (VWR Radnor, Pa.) to resuspend the cells and to break apart cell aggregates. Cells were counted and the final concentration was set at 2-5 million cells per mL. […]
pIC50: −log10 of the molar value.
Value type: pIC50

[
  {
    "Compound": "CCCOC(=O)C1CCC[N+](CC)(CC(=O)Nc2c(C)cccc2C(=O)OC)C1.[I-] (stereo not shown) [Compound 26]",
    "Value type": "pIC50",
    "Value": "5.52 to 6.00"
  },
  {
    "Compound": "CC[N+]1(CC(=O)Nc2c(C)cccc2C(=O)OC)CCCC(c2ccccc2)C1 (mixture of isomers) [Compound 65]",
    "Value type": "pIC50",
    "Value": "> 6.00"
  },
  {
    "Compound": "CCOC(=O)c1cccc(C)c1NC(=O)C[n+]1cccc(C(=O)OC2CCCC2)c1.[Br-] [Compound 68]",
    "Value type": "pIC50",
    "Value": "5.00 to 5.52"
  },
  {
    "Compound": "COC(=O)c1cccc(C)c1NC(=O)C[N+]1(Cc2ccccc2)CCCC(C(=O)N2CCCCC2)C1 (mixture of isomers) [Compound 37]",
    "Value type": "pIC50",
    "Value": "5.52 to 6.00"
  }
]

**Q:** Return the recorded pIC50 value; entry: CC[N+]1(CC(=O)Nc2c(C)cccc2C(=O)OC)CCCC(C(=O)N2CCCCCC2)C1 (mixture of isomers) [Compound 51]
**A:** 5.52 to 6.00

**Q:** Supply reported pIC50 belonging to this compound: Cc1cccc(C(=O)OC(C)(C)C)c1NC(=O)C[n+]1cccc(-c2ccccc2)c1.[Br-] [Compound 71]
**A:** 5.52 to 6.00

**Q:** Check the records and state pIC50 for CC[N+]1(CC(=O)Nc2c(C)cccc2C(=O)OC)CCCC(C(=O)N2CCCC2)C1 (mixture of isomers) [Compound 54]
**A:** 5.52 to 6.00

###

Tested system: NaV1.7 (Homo sapiens, UniProt Q15858)
Construct: expressed in transfected cells; host or cells: HEK293, tetracycline-inducible
Sequence (Q15858 whole entry): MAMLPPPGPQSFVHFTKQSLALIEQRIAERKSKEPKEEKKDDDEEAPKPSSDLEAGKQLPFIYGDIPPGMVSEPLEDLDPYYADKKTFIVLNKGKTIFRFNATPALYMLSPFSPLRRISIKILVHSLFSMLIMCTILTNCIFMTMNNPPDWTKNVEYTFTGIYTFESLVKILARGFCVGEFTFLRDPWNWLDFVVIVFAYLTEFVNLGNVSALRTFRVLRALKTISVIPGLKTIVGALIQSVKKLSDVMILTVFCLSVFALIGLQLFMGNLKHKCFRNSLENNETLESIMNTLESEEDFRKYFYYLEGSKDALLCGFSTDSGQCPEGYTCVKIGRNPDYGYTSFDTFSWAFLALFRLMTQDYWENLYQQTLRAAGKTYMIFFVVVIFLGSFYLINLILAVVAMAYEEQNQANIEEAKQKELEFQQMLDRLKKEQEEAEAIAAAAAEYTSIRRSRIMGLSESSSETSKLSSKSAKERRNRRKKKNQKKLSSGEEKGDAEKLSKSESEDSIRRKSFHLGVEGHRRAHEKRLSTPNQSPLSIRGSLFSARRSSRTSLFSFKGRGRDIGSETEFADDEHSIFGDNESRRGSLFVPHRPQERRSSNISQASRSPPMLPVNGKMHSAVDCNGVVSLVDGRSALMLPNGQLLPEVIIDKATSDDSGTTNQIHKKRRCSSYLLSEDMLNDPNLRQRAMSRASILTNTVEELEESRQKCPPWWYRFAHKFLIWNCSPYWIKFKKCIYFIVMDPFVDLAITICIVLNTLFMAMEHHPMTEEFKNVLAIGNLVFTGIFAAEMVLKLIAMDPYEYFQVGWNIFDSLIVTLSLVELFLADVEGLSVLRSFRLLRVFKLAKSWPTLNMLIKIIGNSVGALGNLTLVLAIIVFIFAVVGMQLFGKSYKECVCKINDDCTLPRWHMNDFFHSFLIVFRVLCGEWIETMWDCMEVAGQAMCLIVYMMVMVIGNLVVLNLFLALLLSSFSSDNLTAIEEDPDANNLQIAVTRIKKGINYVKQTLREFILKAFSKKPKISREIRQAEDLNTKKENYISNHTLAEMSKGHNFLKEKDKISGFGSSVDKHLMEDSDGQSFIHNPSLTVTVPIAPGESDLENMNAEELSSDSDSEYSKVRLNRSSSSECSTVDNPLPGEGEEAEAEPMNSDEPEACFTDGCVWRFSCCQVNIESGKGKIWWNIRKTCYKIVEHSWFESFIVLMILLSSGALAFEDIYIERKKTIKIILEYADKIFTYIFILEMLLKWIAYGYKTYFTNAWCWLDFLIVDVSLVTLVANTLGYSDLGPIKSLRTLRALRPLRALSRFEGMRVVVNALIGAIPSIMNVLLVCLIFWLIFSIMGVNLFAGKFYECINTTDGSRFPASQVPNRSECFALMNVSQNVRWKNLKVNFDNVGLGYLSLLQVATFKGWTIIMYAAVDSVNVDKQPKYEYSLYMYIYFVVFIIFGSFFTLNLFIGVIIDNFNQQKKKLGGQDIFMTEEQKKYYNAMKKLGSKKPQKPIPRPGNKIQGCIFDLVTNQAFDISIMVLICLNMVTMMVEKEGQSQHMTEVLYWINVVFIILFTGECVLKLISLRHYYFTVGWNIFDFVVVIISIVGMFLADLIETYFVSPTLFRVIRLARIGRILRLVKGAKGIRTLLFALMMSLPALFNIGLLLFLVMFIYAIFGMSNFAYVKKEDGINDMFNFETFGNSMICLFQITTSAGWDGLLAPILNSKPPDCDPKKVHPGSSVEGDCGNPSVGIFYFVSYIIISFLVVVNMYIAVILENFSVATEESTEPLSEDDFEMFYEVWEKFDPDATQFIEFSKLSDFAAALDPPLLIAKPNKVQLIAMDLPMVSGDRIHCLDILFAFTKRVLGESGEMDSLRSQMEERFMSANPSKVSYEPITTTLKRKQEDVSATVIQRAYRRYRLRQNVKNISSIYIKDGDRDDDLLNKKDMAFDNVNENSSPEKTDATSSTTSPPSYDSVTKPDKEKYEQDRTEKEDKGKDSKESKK
Run description: Whole cell patch clamp, internal block of NaV1.7 current
Format: cell-based
Measurement parameters: % inhibition at 1 μM test concentration, compound in internal solution, manual whole cell patch clamp
Procedure: NaV1.7 was expressed upon induction with tetracycline. […] Once the recording was started, the voltage protocol was run at 30 second intervals for 5 minutes to get a stable baseline. […] Currents were recorded using PatchMaster software with Heka EPC10 (HEKA Electronics, Lambrecht, Germany). […] The data was plotted using the Patchmaster software (HEKA Electronics, Lambrecht, Germany) and analyzed by plotting the minimum current during the voltage step to −20 mV (peak inward current) as a function of time. […]
Value type: NaV1.7 Intracellular Inhibition

[
  {
    "Compound": "COC(=O)c1cccc(C)c1NC(=O)C[N+]1(Cc2ccccc2)CCCCC1.[Br-] [Compound 3]",
    "NaV1.7 Intracellular Inhibition": "++ (70-30%)"
  },
  {
    "Compound": "CCCNC(=O)C1CCC[N+](CC(=O)Nc2c(C)cccc2C(=O)OC)(Cc2ccccc2)C1 (mixture of isomers) [Compound 28]",
    "NaV1.7 Intracellular Inhibition": "++ (70-30%)"
  },
  {
    "Compound": "COC(=O)c1cccc(C)c1NC(=O)C[N+]1(Cc2ccccc2)CCCC(C(=O)NCC(C)C)C1.[Br-] (stereo not drawn) [Compound 36]",
    "NaV1.7 Intracellular Inhibition": "++ (70-30%)"
  },
  {
    "Compound": "CC[N+]1(CC(=O)Nc2c(C)cccc2C(=O)OC)CCCC(C(=O)N2CCCC2)C1 (mixture of isomers) [Compound 54]",
    "NaV1.7 Intracellular Inhibition": "++ (70-30%)"
  },
  {
    "Compound": "CCNC(=O)C1CCC[N+](CC(=O)Nc2c(C)cccc2C(=O)OC)(Cc2ccccc2)C1.O=C([O-])C(F)(F)F (stereo not drawn) [Compound 33]",
    "NaV1.7 Intracellular Inhibition": "++ (70-30%)"
  }
]

**Q:** Given COC(=O)c1cccc(C)c1NC(=O)C[N+]1(Cc2ccccc2)CCCC(C(=O)N(C)C)C1 (mixture of isomers) [Compound 40] , report its NaV1.7 Intracellular Inhibition on NaV1.7 (Homo sapiens, UniProt Q15858).
**A:** ++ (70-30%)

**Q:** Please look at COC(=O)c1cccc(C)c1NC(=O)C[N+]1(Cc2ccccc2)CCCC(C(=O)N2CCCC2)C1 (mixture of isomers) [Compound 43] and tell me its recorded NaV1.7 Intracellular Inhibition on NaV1.7 (Homo sapiens, UniProt Q15858).
**A:** ++ (70-30%)

**Q:** Report NaV1.7 Intracellular Inhibition from NaV1.7 (Homo sapiens, UniProt Q15858) testing of COC(=O)c1cccc(C)c1NC(=O)C[N+]1(CC(=O)N(C)C)CCCC(c2ccccc2)C1.O=C([O-])C(F)(F)F (stereo not drawn) [Compound 60]
**A:** ++ (70-30%)

**Q:** State measured NaV1.7 Intracellular Inhibition of the compound CCOC(=O)c1cccc(C)c1NC(=O)C[n+]1cccn1C1CCCCC1.[Br-] [Compound 70] with NaV1.7 (Homo sapiens, UniProt Q15858).
**A:** ++ (70-30%)

**Q:** Tell me NaV1.7 Intracellular Inhibition of Cc1cccc(C(=O)OC(C)(C)C)c1NC(=O)C[n+]1cccn1C1CCCCC1.[Br-] [Compound 72] when tested on NaV1.7 (Homo sapiens, UniProt Q15858).
**A:** ++ (70-30%)

###

Tested system: NaV1.7 (Homo sapiens, UniProt Q15858)
Construct: expressed in transfected cells; host or cells: HEK293, tetracycline-inducible
Run description: Automated patch clamp (Qube 384), external block of NaV1.7 in HEK293 cells
Type: cell-based
Measurement parameters: compound in external solution, read-out: NaV1.7 Extracellular Inhibition
Value type: IC50

Some compounds with known IC50 results, for comparison:
[
  {
    "Compound": "CCOC(=O)c1cccc(C)c1NC(=O)C[N+]1(Cc2ccccc2)CCCCC1.[Br-]",
    "Tested system": "NaV1.7 (Homo sapiens, UniProt Q15858)",
    "Value type": "IC50",
    "Value": "1 to 10 µM"
  },
  {
    "Compound": "CC[N+]1(CC(=O)Nc2c(C)cccc2C(=O)OC)CCCC(C(N)=O)C1.[I-] (stereo not drawn)",
    "Tested system": "NaV1.7 (Homo sapiens, UniProt Q15858)",
    "Value type": "IC50",
    "Value": "> 30 µM"
  },
  {
    "Compound": "COC(=O)c1cccc(C)c1NC(=O)C[N+]1(Cc2ccccc2)CCCC(C(N)=O)C1.[Br-] (stereo not drawn)",
    "Tested system": "NaV1.7 (Homo sapiens, UniProt Q15858)",
    "Value type": "IC50",
    "Value": "> 30 µM"
  },
  {
    "Compound": "CCOC(=O)C[N+]1(CC(=O)Nc2c(C)cccc2C(=O)OC)CCCC(c2ccccc2)C1.O=C([O-])C(F)(F)F (stereo not drawn)",
    "Tested system": "NaV1.7 (Homo sapiens, UniProt Q15858)",
    "Value type": "IC50",
    "Value": "1 to 10 µM"
  },
  {
    "Compound": "COC(=O)c1cccc(C)c1NC(=O)C[n+]1cccn1C1CCCCC1.[Br-]",
    "Tested system": "NaV1.7 (Homo sapiens, UniProt Q15858)",
    "Value type": "IC50",
    "Value": "> 30 µM"
  },
  {
    "Compound": "CC[N+]1(CC(=O)Nc2c(C)cccc2C(=O)OC)CCCC(C(=O)N2CCCCC2)C1.[I-] (stereo not drawn)",
    "Tested system": "NaV1.7 (Homo sapiens, UniProt Q15858)",
    "Value type": "IC50",
    "Value": "> 30 µM"
  }
]

**Q:** Provide measured IC50 value, entry: COC(=O)c1cccc(C)c1NC(=O)C[N+]1(Cc2ccccc2)CCCC1
**A:** > 30 µM

Entry source: patent US10927096B2
